- studyTarget: PD-L1 (Homo sapiens (Human))
- Sequence (Q9NZQ7 19-238): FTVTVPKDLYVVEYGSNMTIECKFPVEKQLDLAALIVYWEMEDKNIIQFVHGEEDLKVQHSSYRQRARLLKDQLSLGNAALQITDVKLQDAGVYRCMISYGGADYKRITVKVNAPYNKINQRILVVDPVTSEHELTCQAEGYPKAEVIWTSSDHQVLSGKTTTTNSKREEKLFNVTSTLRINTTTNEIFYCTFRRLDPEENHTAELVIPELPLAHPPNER
- Sequence (Q9NZQ7 19-238): as above
- assayProcedure: PD-L1/PD-L1 dimerization biochemical protein-protein interaction assay (ALPHA)
- Assay type: binding
- experimentalConditions: 0.5 nM His tagged PD-L1 and 0.5 nM FLAG tagged PD-L1, Table 4A, read-out: AC50 PDL1 Dimer 1 nM
List of AC50 values.
reportedEndpoint: AC50

                                   molecule  measurement
0  COc1nc(-c2cccc(-c3cccc4c3CC[C@@H]4Nc3nc(OC)c(CN4CCCC[C@@]4(C)C(=O)O)cc3C(F)(F)F)c2Cl)ccc1CN1CC(C)(O)C1 [A-52]      15.3 nM
1  COc1nc(-c2cccc(-c3cccc4c3CC[C@@H]4Nc3nc(OC)c(CN4C5CCC4(C(=O)O)CC5)cc3C(F)(F)F)c2Cl)ccc1CNC[C@@H]1CCC(=O)N1 [A-61]      10.6 nM
2  COc1nc(-c2cccc(-c3cccc4c3CC[C@@H]4Nc3nc(OC)c(CN4C5CCC4(C(=O)O)CC5)cc3C(F)(F)F)c2Cl)ccc1CN1CC(C)(O)C1 [A-60]      13.9 nM
